# system.name: ERK5 (Homo sapiens)
# Construct: screened for activity against several kinases in Jurkat cells; endogenous in cells; host or cells: Jurkat cell lysate
# Sequence (Q13164 whole entry): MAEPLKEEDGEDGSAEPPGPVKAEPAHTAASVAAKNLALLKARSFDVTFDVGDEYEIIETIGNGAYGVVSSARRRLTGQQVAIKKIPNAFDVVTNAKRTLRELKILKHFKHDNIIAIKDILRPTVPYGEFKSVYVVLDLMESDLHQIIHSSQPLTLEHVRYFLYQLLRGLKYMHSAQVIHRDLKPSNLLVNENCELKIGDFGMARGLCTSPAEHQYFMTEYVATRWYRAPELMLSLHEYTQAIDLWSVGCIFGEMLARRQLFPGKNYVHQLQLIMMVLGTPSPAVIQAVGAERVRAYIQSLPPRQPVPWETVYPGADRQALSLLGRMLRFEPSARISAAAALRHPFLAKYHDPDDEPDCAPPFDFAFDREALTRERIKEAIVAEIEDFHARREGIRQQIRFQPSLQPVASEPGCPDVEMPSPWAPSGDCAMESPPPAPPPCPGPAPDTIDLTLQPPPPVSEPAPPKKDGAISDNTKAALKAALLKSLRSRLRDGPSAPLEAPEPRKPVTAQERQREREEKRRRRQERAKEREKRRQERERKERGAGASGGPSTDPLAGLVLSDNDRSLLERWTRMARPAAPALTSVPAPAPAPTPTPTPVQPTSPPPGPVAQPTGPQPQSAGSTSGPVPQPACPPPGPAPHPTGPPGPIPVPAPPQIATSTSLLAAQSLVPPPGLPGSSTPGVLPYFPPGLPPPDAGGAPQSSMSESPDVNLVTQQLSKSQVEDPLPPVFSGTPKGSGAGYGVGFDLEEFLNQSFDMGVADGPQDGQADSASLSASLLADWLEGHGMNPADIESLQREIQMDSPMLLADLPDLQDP
# protocol.summary: Probe-based (AX9989 acyl phosphate ATP probe) kinase profiling in Jurkat lysate: ERK5
# Assay type: binding
# experimental.conditions: calculated from percent inhibition and screening concentration; Jurkat lysate, AX9989 probe
# Experimental: In this example, potency of the compounds as ERK5 inhibitors was assessed, and the compounds were screened for activity against several kinases in Jurkat cells. […] Kinase active site peptides were identified and quantified using LC/MS. Percent inhibition was calculated as the normalized decrease in the ESI-MS fragment intensities of probe-labeled peptides in samples incubated with the test compound compared to those without. […]
Form field: IC50 (one value per entry).

Req: Name the reported IC50 value associated with the molecule CN1C(=O)c2c(F)ccc(F)c2Oc2cc(N[C@H]3CC[C@H](O)CC3)ncc21
Resp: > 500 nM
